assay.comment: LD50 of Staurosporine (note to Table 5)
condition.description: in vivo; species and route not printed in the note
endpoint: LD50
Dear colleague, please send the value followed by its unit.

Param item = CN[C@@H]1C[C@H]2O[C@@](C)([C@@H]1OC)n1c3ccccc3c3c4c(c5c6ccccc6n2c5c31)C(=O)NC4 [Staurosporine, reference compound] ; retrieve measured LD50.
6.6 mg/kg
